normalized growth for assorted compounds
assay: chemical genetic growth profiling, strain panel (AID 1159580);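 also: tested at 20 µM; growth read once vehicle control cultures reached saturation at 30 °C; 1 = growth at the plate median or of vehicle wells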; settings: S. cerevisiae deletion strains, growth OD, locus YIL066C, strain RNR3, stronger effect = lower value
In all, about 5,500 compounds went through this assay and about 2,000 (36%) were called active. Roughly 18% stayed inconclusive and do not appear here. The list shows a part of the results.
Output: the number by itself.

COc1ccc2cc1Oc1ccc(cc1)C[C@H]1c3cc(c(OC)cc3CCN1C)Oc1c(OC)c(OC)cc3c1[C@H](C2)N(C)CC3: 1
CCc1nc(N)nc(N)c1-c1ccc(Cl)cc1: 1.01
COC1C(O)C(O)C(O)[C@@H](O)C1O (stereo not given in full): 1.01
COC(=O)c1c(Cl)c(Cl)c(C(=O)OC)c(Cl)c1Cl: 0.984

# next compound below
Exam item: What normalized growth value was documented for this compound, CC(C)CC1C(=O)N2CCC[C@H]2C2(O)O[C@](NC(=O)C3C=C4c5cccc6[nH]c(Br)c(c56)C[C@H]4N(C)C3)(C(C)C)C(=O)N12 (stereo not given in full) ?
Marked response: 0.981

---

experiment: chemical genetic growth profiling, strain panel (AID 1159580); settings: S. cerevisiae deletion strains, growth OD, locus YER016W, strain bim1, stronger effect = lower value
Hit rate of the full screen: of about 5,500 compounds, about 2,000 (36%) were called active. Not shown: some 18% with an inconclusive outcome. The list shows a part of the results.
Reported normalized growth by item:
Reply: number alone, nothing else.

Observe how each entry below is paired with its result.
Cc1c(N(C)C)c(=O)n(-c2ccccc2)n1C: 0.999
CN=C(NC#N)NCCSCc1nc[nH]c1C: 1
CC(=O)[C@H]1CCC2C3C[C@H](C)C4=CC(=O)CC[C@]4(C)C3[C@@H](O)C[C@@]21C (stereo partly specified): 0.996
CC(C)=CCc1c(O)cc2oc(C)cc(=O)c2c1O: 0.965
COc1ccc(C2CC(=O)c3ccc(OC)cc3O2)cc1 (stereo unspecified): 0.963
CNC1(C)C2CCC(C2)C1(C)C (stereo unspecified): 0.997
COc1ccc([C@@H]2CC(=O)c3c(O)cc(O)cc3O2)cc1O: 0.976
NCC1CCCCC1CC(=O)O (stereo unspecified): 1
CC(=O)O[C@]1(C(C)=O)CCC2C3C=C(Cl)C4=CC(=O)CC[C@]4(C)C3CC[C@@]21C (stereo partly specified): 0.984
Cc1cc(OC(=O)N2CCCCC2)c(C(C)C)cc1[N+](C)(C)C: 1.01

Now consider a different compound.
Exam item: normalized growth lookup needed for CCCCCC(=O)O[C@]1(C(C)=O)CCC2C3CCC4=CC(=O)CC[C@]4(C)C3CC[C@@]21C (stereo partly specified) , thanks.
Marked response: 0.988

---

experiment: chemical genetic growth profiling, strain panel (AID 1159580); settings: S. cerevisiae deletion strains, growth OD, locus YNL322C, strain KRE1 (second series), stronger effect = lower value
Hit rate of the full screen: of about 5,500 compounds, about 2,000 (36%) were called active. Another 18% or so got no clear call; they are omitted. This is one part of the list.
Response field label: string, one of yes (1) (normalized growth strictly below 1) or no (0).

The examples below pair each entry with its known result.
CCCCOc1ccc(C(=O)CCN2CCCCC2)cc1: no (0)
O=C(/C=C/C=C/c1ccc2c(c1)OCO2)N1CCCCC1: yes (1)
COc1c2c(c(CC=C(C)C)c3oc(=O)c(-c4ccc(O)cc4)c(O)c13)OC(C)(C)C=C2: no (0)
COc1ccc(C(=O)c2ccccc2)c(O)c1: yes (1)
CCCCCC(C)N (stereo unspecified): no (0)

Shift focus to the following entry.
Exam item: In plain terms, does CC(=O)O[C@]1(C(C)=O)CCC2C3C[C@H](C)C4=CC(=O)CC[C@]4(C)C3CC[C@@]21C (stereo partly specified) come in under 1 for normalized growth?
Marked response: yes (1)

---

assay: chemical genetic growth profiling, strain panel (AID 1159580); settings: S. cerevisiae deletion strains, growth OD, locus YOL136C, strain PFK27
About 2,000 (36%) of roughly 5,500 compounds were called active. Not shown: some 18% with an inconclusive outcome. Cut-off read from the data, not from the text of the source: active = normalized growth mostly below about 0.91 (no sharp cut-off); inconclusive = no clear call, values can overlap the other calls; inactive = mostly above about 0.92. The list shows a part of the results.
Your answer must be one of the following: yes (active), no (inactive)

Examples with answers:
Cc1c(C(=O)N2CCCCC2)cc(-c2ccccc2)n1-c1ccccc1: no
N#C/C(=N/Nc1ccccc1Cl)S(=O)(=O)c1ccc(Cl)cc1: no
NCCCN=c1ccc2c3c1c(O)c1c(O)ccc(=O)c1c3[nH]n2CCNCCO: no

Exam item: Tell me the assay call for "CC(C)(C)C1=NN(c2nc3ccc(Cl)cc3s2)C(=O)C1" please.
Marked response: yes

Exam item: // repeat for "O=C(Nc1cc(Cl)cc(Cl)c1)Nc1cc(-c2cccs2)[nH]n1" and report
Marked response: no

Exam item: Param item: CCC(C)c1ccccc1NC(=O)c1cc2cccc([N+](=O)[O-])c2[nH]1 (centres undefined)
Marked response: no

Exam item: Note, next up: "Cn1cncc1S(=O)(=O)/C(C#N)=C/c1ccccc1Sc1ccc(Cl)cc1"
Marked response: yes

Exam item: Okay, and "C/C(=N/NC(N)=S)c1ccccn1" ?
Marked response: no

Exam item: Also need "O=C(Oc1cc(Cl)c(Cl)cc1Cl)C1c2ccccc2Oc2ccccc21" , thanks.
Marked response: no

Exam item: Now consider "O=C(CCN1CCCCC1)c1ccc(-c2ccccc2)cc1" and answer again.
Marked response: no

Exam item: What about "COc1ccc(NC(=O)O/N=C(/N)c2ccc(Oc3c(Cl)cncc3Cl)cc2)cc1" ?
Marked response: no

Exam item: For "O=[N+]([O-])c1cc(C(F)(F)F)ccc1-n1ccc(-c2cccs2)n1" then?
Marked response: no

Exam item: And then "NC(N)=Nc1nc(-c2cc(Cl)sc2Cl)cs1" , what is it?
Marked response: no

Exam item: What would you report for "Cc1c(Cl)cccc1NC(=S)N1CCCN(c2nc3ccc(Cl)cc3s2)CC1" ?
Marked response: no

---

test: chemical genetic growth profiling, strain panel (AID 1159580); details: S. cerevisiae deletion strains, growth OD, locus YGR252W, strain gcn5
Screen size: about 5,500 compounds; about 2,000 (36%) were called active. Another 18% or so got no clear call; they are omitted. Rule as the data show it: active = normalized growth mostly below about 0.91 (no sharp cut-off); inconclusive = no clear call, values can overlap the other calls; inactive = mostly above about 0.92. This is one part of the list.
Choose the fitting class; nothing outside active, inactive is accepted.

Exam item: Would you mind telling me which call this test gave "COc1ccc(C[C@H]2NC[C@H](O)[C@H]2OC(C)=O)cc1" ?
Marked response: active

---

Reported normalized growth values for a set of molecules
assay: chemical genetic growth profiling, strain panel (AID 1159580);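 also: tested at 20 µM; growth read once vehicle control cultures reached saturation at 30 °C; 1 = growth at the plate median or of vehicle wells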; conditions: S. cerevisiae deletion strains, growth OD, locus YJR016C, strain ILV3, stronger effect = lower value
Screen size: about 5,500 compounds; about 2,000 (36%) were called active. Another 18% or so got no clear call; they are omitted. The list shows a part of the results.
Write the value as a bare number.

Exam item: Please look up its normalized growth: "N#C/C(=N/Nc1ccccc1Cl)S(=O)(=O)c1ccc(Cl)cc1"
Marked response: 0.974

---

assay: chemical genetic growth profiling, strain panel (AID 1159580);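 also: tested at 20 µM; growth read once vehicle control cultures reached saturation at 30 °C; 1 = growth at the plate median or of vehicle wells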; conditions: S. cerevisiae deletion strains, growth OD, locus YDL214C, strain PRR2, stronger effect = lower value
In all, about 5,500 compounds went through this assay and about 2,000 (36%) were called active. About 18% were inconclusive and are not listed. This is one part of the list.
normalized growth strictly under 0.9 means 1 (yes); at 0.9 or over means 0 (no).

Answered examples (4):
Cc1c(Cl)cccc1NC(=S)N1CCCN(c2ccc(C(F)(F)F)cc2[N+](=O)[O-])CC1: 0 (no)
C/C(=N/NC(N)=S)c1ccccn1: 0 (no)
NC(N)=Nc1nc(-c2cc(Cl)sc2Cl)cs1: 0 (no)
O=C(C=C(O)c1ccc(Br)cc1)C(=O)Nc1ccccc1: 1 (yes)

Exam item: Could you please tell me whether normalized growth recorded for "Cn1c([N+](=O)[O-])cnc1/C=C(\C#N)C(=O)Nc1ccc(F)cc1" is less than 0.9?
Marked response: 1 (yes)

Exam item: What about "N#Cc1c(Cl)c(Cl)c(Cl)c(Cl)c1C#N" ?
Marked response: 1 (yes)

Exam item: Likewise for "Cc1c(Cl)cccc1NC(=S)N1CCCN(c2nc3ccc(Cl)cc3s2)CC1" ?
Marked response: 0 (no)

---

assay: chemical genetic growth profiling, strain panel (AID 1159580);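 also: tested at 20 µM; growth read once vehicle control cultures reached saturation at 30 °C; 1 = growth at the plate median or of vehicle wells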; conditions: S. cerevisiae deletion strains, growth OD, locus YDR297W, strain sur2
The campaign covered roughly 5,500 compounds. About 2,000 (36%) were called active. About 18% were inconclusive and are not listed. Rule as the data show it: active = normalized growth mostly below about 0.91 (no sharp cut-off); inconclusive = no clear call, values can overlap the other calls; inactive = mostly above about 0.92. The list shows a part of the results.
Please reply with one of these outcomes: 1 = active, 0 = inactive

CCc1ccc(CCOc2ccc(CC3SC(=O)NC3=O)cc2)nc1 (stereo not drawn): 0
CC(=O)CC(=O)CCC(=O)O: 0

Exam item: What call does the record list for "Cn1cc[nH]c1=S" ?
Marked response: 0

Exam item: Please answer likewise for "CCCCCCCCCCCCC[N+](C)(C)Cc1ccccc1"
Marked response: 1

Exam item: Another: "NC(=O)N1c2ccccc2CC(=O)c2ccccc21"
Marked response: 0

Exam item: What do you get for "C[N+](C)(C)CC(=O)[O-]" ?
Marked response: 0

Exam item: Same thing, different molecule: "c1ccc(CC2=NCCN2)cc1"
Marked response: 0

Exam item: Proceed to "CCCCOc1ccc(CC(=O)NO)cc1"
Marked response: 0
